Where do these numbers come from? They come from paper PMC7922108.

- target: Yeast α-glucosidase enzyme
- assay_protocol: α-Glucosidase inhibition assay (PNPG substrate)
- Type: biochemical
- recorded_conditions: NA = no inhibitory activity; acarbose positive control
Consider the following compounds; for each one, report its IC50 (μg/mL), α-glucosidase inhibitory activity.
One number for each entry, in µg/mL.

COc1cc(CCCOC(=O)CCc2ccc(O)cc2)ccc1O [Dihydroconiferyl dihydro-p-coumarate (9), dihydroconiferyl dihydro-p-coumarate] = 88.1
COc1cc2c(cc1O)CCc1c(Oc3cc4c(cc3OC)-c3c(cc(O)cc3OC)CC4)c(O)cc(OC)c1-2 = 16.8
COc1cc(O)cc(CCc2ccc(O)c(OC)c2)c1 = 52.5
COc1cc(O)cc2c1-c1cc(O)c(O)cc1CC2 = 29.7
COc1cc(O)c(-c2c(O)cc(OC)c3c2ccc2cc(O)c(O)cc23)c2ccc3cc(O)c(O)cc3c12 = 2.7

Lab note: each compound below needs its IC50 (μg/mL), α-glucosidase inhibitory activity filled in.
1. COc1cc2c(ccc3c(-c4c(O)cc5c6c4ccc4cc(O)c(OC)c(c46)CO5)c(O)cc(OC)c32)cc1O
2. COc1cc2c(cc1O)CCc1cc(O)cc(OC)c1-2

1: 41.8; 2: 61.2

Lab note: each compound below needs its IC50 (μg/mL), α-glucosidase inhibitory activity filled in.
1. COc1cc2c(ccc3c(-c4c(O)cc(OC)c5c4ccc4cc(O)c(OC)cc45)c(O)cc(OC)c32)cc1O
2. COc1c(O)cc2c3c1COc1cc(O)cc(c1-3)CC2

1: 20.1; 2: 44.9

* * *

- target: Yeast α-glucosidase enzyme
- assay_protocol: Enzyme kinetics study, Lineweaver–Burk plot and secondary plot
- recorded_conditions: from secondary plot (slopes vs inhibitor concentrations)
observation_type: Ki (µM)
Answers are plain numbers, in µM.

Reported Ki of `COc1cc(O)c(-c2c(O)cc(OC)c3c2ccc2cc(O)c(O)cc23)c2ccc3cc(O)c(O)cc3c12` : 4.18
